- target-desc: Liver carboxylesterase (Sus scrofa, UniProt Q29550)
- Sequence (Q29550 whole entry): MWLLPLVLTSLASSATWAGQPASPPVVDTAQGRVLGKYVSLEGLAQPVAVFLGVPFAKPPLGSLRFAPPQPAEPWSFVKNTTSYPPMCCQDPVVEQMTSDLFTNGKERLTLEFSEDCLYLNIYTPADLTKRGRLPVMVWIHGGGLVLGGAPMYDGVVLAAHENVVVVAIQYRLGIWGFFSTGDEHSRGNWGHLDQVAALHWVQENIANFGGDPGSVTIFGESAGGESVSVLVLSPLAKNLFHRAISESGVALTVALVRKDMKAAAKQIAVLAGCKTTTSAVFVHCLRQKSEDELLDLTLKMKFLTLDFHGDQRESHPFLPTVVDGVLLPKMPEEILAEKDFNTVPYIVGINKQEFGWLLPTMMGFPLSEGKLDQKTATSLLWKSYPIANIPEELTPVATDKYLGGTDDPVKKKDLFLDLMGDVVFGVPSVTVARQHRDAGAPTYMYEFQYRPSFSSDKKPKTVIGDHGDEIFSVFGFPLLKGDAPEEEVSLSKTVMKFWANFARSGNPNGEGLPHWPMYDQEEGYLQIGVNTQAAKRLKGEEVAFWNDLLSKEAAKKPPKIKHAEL
- assay-remarks: Stability of the compound in buffer at pH 7.5 assessed as porcine esterase-mediated compound degradation measured over 3 hrs by LC-MS analysis
- Type: ADME
- reported-conditions: pig, read-out: Drug degradation
measurement-type: metabolised at 3 h (%)
Provide the reading as a plain figure in %.

Req: Enter metabolised at 3 h (test system Liver carboxylesterase (Sus scrofa, UniProt Q29550)) for CC(=O)OC1Oc2ccccc2C[C@@H]1NC(=O)[C@H](Cc1ccccc1)NC(=O)N1CCN(C)CC1 (stereo partly specified)
Resp: 10

====

- target-desc: Cruzipain (Trypanosoma cruzi)
- Sequence (P25779 whole entry): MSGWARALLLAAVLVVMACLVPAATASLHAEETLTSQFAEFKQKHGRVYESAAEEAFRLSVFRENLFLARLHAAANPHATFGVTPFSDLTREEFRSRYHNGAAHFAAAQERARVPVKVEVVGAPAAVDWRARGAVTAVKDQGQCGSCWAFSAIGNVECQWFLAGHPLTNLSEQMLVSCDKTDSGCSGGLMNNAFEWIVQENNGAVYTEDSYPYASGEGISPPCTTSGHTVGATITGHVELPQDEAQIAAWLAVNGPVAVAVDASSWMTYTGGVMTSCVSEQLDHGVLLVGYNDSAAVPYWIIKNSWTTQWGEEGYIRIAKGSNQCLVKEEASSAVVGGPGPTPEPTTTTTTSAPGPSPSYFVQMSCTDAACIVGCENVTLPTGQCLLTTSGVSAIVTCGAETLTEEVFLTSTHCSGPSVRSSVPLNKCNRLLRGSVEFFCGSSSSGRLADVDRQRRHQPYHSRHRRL
- assay-remarks: Time dependent inhibition of Trypanosoma cruzi cruzain using Cbz-Phe-Arg-AMC as substrate assessed as inhibition constant for EI complex measured for 0.5 to 1 hr by fluorescence based analysis
Residues, ends and D or L forms follow the SMILES beside them. *: point of attachment. Cbz = O=C(OCc1ccccc1)*
Ki overview
Provide the reading as a plain figure in nM.

| molecule | Ki (nM) |
| --- | --- |
| O=C(N[C@@H](Cc1ccccc1)C(=O)N[C@H]1Cc2cc(F)ccc2OC1O)OCc1ccccc1 (stereo not given in full) | 48 |
| O=C[C@H](Cc1ccccc1)NC(=O)[C@H](Cc1ccccc1)NC(=O)OCc1ccccc1 (Cbz-Phe-Phe-aldehyde) | 0.44 |
| O=C(N[C@@H](Cc1ccccc1)C(=O)N[C@H]1Cc2cc(Cl)ccc2OC1O)OCc1ccccc1 (stereo not given in full) | 74 |
| CC(=O)OC1Oc2ccccc2C[C@@H]1NC(=O)[C@H](Cc1ccccc1)NC(=O)N1CCN(C)CC1 (stereo not given in full) | 1000 |
| CN1CCN(C(=O)N[C@@H](Cc2ccccc2)C(=O)N[C@H]2Cc3ccccc3OC2O)CC1 (stereo not given in full) | 47 |
| COc1ccccc1C[C@@H](C=O)NC(=O)[C@H](Cc1ccccc1)NCC(=O)OCc1ccccc1 | 22 |
| COC(=O)c1ccc2c(c1)C[C@H](NC(=O)[C@H](Cc1ccccc1)NC(=O)OCc1ccccc1)C(O)O2 (stereo not given in full) | 18 |
| COc1ccc2c(c1)C[C@H](NC(=O)[C@H](Cc1ccccc1)NC(=O)OCc1ccccc1)C(O)O2 (stereo not given in full) | 350 |

Now for another entry.
Req: Give reported Ki value for O=C(N[C@@H](Cc1ccccc1)C(=O)N[C@H]1Cc2ccccc2OC1O)OCc1ccccc1 (stereo not given in full)
Resp: 49
